MEASUREMENT NOTES: viability rescue of complex I mutant cybrids, primary screen, cell-based, galactose medium, ATP luminescence (AID 1645843);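 also: positive z means more ATP and so rescue of galactose-driven cybrid death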
SETTINGS: complex I mutant cybrid cells, 72 h, active compounds read high
Classification field: enter 1 for z-score values not below -0.6, 0 for values below it.

# input Can CN(C)CCOc1ccc(/C(=C(/CCCl)c2ccccc2)c2ccccc2)cc1 be said to have z-score at or above -0.6?
# output 0

# input Please check the record Cc1cc(-n2c(=O)[nH]c(=O)n(C)c2=O)ccc1Oc1ccc(SC(F)(F)F)cc1 and state if its z-score is at or above -0.6.
# output 1

# input Quick check, z-score >= -0.6? NCCCNCCCCNCCCN
# output 1
